METRIC_NAME: melting point

molecule=CC(C)(C)c1ccc(C(=O)Nc2ccc(OCCO)cc2)cc1 observed="136 to 142 °C"
molecule=CCCC[C@H](NC(=O)[C@H](CC(C)C)NC(=O)c1ccc(C(=O)OC)cc1)C(=O)CSCc1ccco1 observed="100 to 102 °C"
molecule=CC(=O)OCCOCn1c(Cl)nc2c(Cl)c(Cl)c(Cl)c(Cl)c21 observed="119 °C"
molecule=CCc1csc(-n2cc(C)cc2-c2ccc(S(N)(=O)=O)cc2)c1 observed="139 to 141 °C"
molecule=COc1ccn2nc(-c3ccccc3)c(-c3ccc(=O)[nH]n3)c2c1 observed="246 to 247 °C"
molecule=CSCc1cn(C)c2ccccc2c1=O observed="118 to 120 °C"
molecule="CC(=O)OCC1OC(OC(C)=O)C(O)C(OC(C)=O)C1OC(C)=O (stereo not given)" observed="163 to 165 °C"
molecule="CC(=O)OC1C(NC(=O)c2ccc(C(F)(F)F)cc2)c2sc(C(C)=O)cc2OC1(C)C (stereo not given)" observed="225 to 227 °C"
molecule=O=[N+]([O-])c1cc(F)cc2c(Cl)ccnc12 observed="120 to 130 °C"
molecule=FC(F)(F)CNC(=S)NCc1ccc(OC(F)(F)F)cc1 observed="94.7 to 96.4 °C"
molecule="CCc1ccc2c(c1)[C@@H](N1CCCC1=O)[C@H](O)C(C)(C)O2 (relative stereo)" observed="154 to 163 °C"
molecule=CC(C)(C)CC(C)(C)c1ccc(Oc2cc3nc(-c4ccccc4)oc3cc2[N+](=O)[O-])cc1 observed="183 to 185 °C"
molecule=O=C(NCc1cccnc1)c1ccc2n1Cc1ccccc1N(C(=O)c1ccc(-c3ccccc3CN3CCOCC3)cc1)C2 observed="191 to 194 °C"
molecule=CCc1ccc(S(=O)(=O)n2c(CCC(=O)O)cc3cc(Cl)ccc32)cc1 observed="130 to 133 °C"
molecule=Cc1cc(Cl)cnc1NCCCNc1ncc(Cc2ccncc2)c(=O)[nH]1 observed="90 to 92 °C"
molecule=O=C1c2c(Cl)cccc2-n2cnc(-c3noc(C4CC4)n3)c2[C@@H]2CCCN12 observed="236 to 237 °C"
molecule=COc1ccc(-c2c(Cl)c(CN3C(=O)CCC3=O)nc3sc4c(c23)CCNC4)cc1OC observed="250 to 252 °C"
molecule=Cc1ccc(-c2nc(N)ncc2-c2ccc(=O)[nH]n2)cc1 observed="249 °C"
molecule=COc1ccc(NC(=S)NCC(OC)OC)cc1 observed="215 to 217 °C"
molecule="Cc1[nH]c(=O)c(C#N)cc1-c1ccccc1OCC(C)C(=O)O (stereo not given)" observed="228 to 230 °C"
molecule=O=c1nc(NCc2ccccc2)n2c3c1cnn3C(c1cccc(C(F)(F)F)c1)=CC2 observed="220 to 224 °C"
molecule=COc1ccc2c(CNCCCCCC(=O)O)cc3cc(OC)c(OC)cc3c2c1 observed="133 to 134 °C"
molecule=CCOC(=O)CCC1(CCC(=O)OCC)CCC(=O)N1 observed="44 to 46 °C"
molecule=COC(=O)C1=Cc2cc(-c3ccc(OCCOC(C)C)cc3)ccc2N(S(C)(=O)=O)CC1 observed="119 to 121 °C"
molecule=O=C(Nc1ccc(-n2nc(C3CC3)cc2C2CC2)c(F)c1)c1cccc(F)c1F observed="132 to 135 °C"
molecule=O=C(O)c1ccc(COc2ccc(-c3ccc(-c4c(Cc5ccccc5)oc5ccccc45)cc3)cc2)cc1 observed="208 to 210 °C"
molecule=NC(=O)NN=Cc1c(O)c(O)cc2ccccc12 observed="210 to 215 °C"
molecule=O=C(NCCc1c[nH]c2ccccc12)C1CCCCC1 observed="98 to 99 °C"
molecule="COc1c(Cl)ccc(-c2cc(N)c(Cl)c(C(=O)NOC3CCCCO3)n2)c1F (stereo not given)" observed="176 to 179 °C"
molecule=O=C(O)c1cn(C2CSC2)c2c(F)c(F)c(F)cc2c1=O observed="172 to 175 °C"
molecule=CCCCCCc1cc(-c2ccccc2)c(OCC(=O)OC)c(-c2ccccc2)c1 observed="87 to 89 °C"
molecule=O=P(c1ccccc1)(c1ccccc1)N1C[C@@H](P(c2ccccc2)c2ccccc2)C[C@H]1CP(c1ccccc1)c1ccccc1 observed="130 °C"
molecule="CC(=O)c1ccc(OC(C)CCCCC(=O)O)cc1O (stereo not given)" observed="116 to 118 °C"
molecule=CCOC(=O)C(C#N)=C(c1ccc(F)cc1)c1ccc(F)cc1 observed="114 to 116 °C"
molecule=C[C@@H]1N=C(c2ccccc2Cl)c2ccsc2NC1=O observed="200 °C"
molecule=CN1COCN(Cc2ccc(Cl)nc2)C1=N[N+](=O)[O-] observed="116 to 118 °C"
molecule=COc1cccc(C=C2SC(=S)NC2=O)c1OC observed="268 to 269 °C"
molecule=N#CC=Cc1ccc(Cl)s1 observed="41 to 43 °C"
molecule=Cc1cc(=O)c(-c2ccc(F)cc2)c(C)o1 observed="114 to 115 °C"
molecule=O=[N+]([O-])c1ccc2c(ccn2Cc2ccncc2)c1 observed="134 to 136 °C"
